Test: log P by HPLC
Type: physicochemical
Settings: HPLC, gradient method, acetonitrile/0.1% aqueous phosphoric acid; EEC directive 79/831 Annex V. A8
logP reference
Please give only the number in your answer, with no unit.

Previously resolved entries follow.
[
  {
    "molecule": "CCCCNc1c(-c2ccc(F)cc2F)c(Cl)nc2nc(C(F)(F)F)nn12 [compound 526]",
    "logP": 4.07
  },
  {
    "molecule": "Fc1ccc(-c2c(Cl)nc3nc(C4CC4)nn3c2NCC2CC2)c(Cl)c1 [compound 625]",
    "logP": 3.63
  },
  {
    "molecule": "CCN(CCOC)c1c(-c2ccc(F)cc2Cl)c(Cl)nc2nc(C3CC3)nn12 [compound 631]",
    "logP": 3.81
  },
  {
    "molecule": "Cc1nc2nc(Cl)c(-c3c(F)cccc3Cl)c(N3CCCCC3)n2n1 [compound 254]",
    "logP": 3.55
  },
  {
    "molecule": "COCCN(C)c1c(-c2c(F)cccc2Cl)c(Cl)nc2nc(C3CC3)nn12 [compound 699]",
    "logP": 3.3
  }
]

Request: State its logP for this molecule: Cc1nc2nc(Cl)c(-c3ccc(F)cc3F)c(NCC(C)C)n2n1 [compound 191]
Result: 3

Request: Fill in logP for record CC1=CCCN(c2c(-c3ccccc3Cl)c(Cl)nc3nc(C)nn23)C1 [compound 231]
Result: 3.7

Request: Read off the recorded logP for CCCN(CCOC)c1c(-c2ccc(F)cc2F)c(Cl)nc2nc(C(F)(F)F)nn12 [compound 553]
Result: 4.39

Request: Read the entry CCc1nc2nc(Cl)c(-c3c(F)cc(F)cc3F)c(N3CC(C)OC(C)C3)n2n1 (stereo not drawn) [compound 71] and write its reported logP.
Result: 3.57

Request: Retrieve logP measured for CC(C)CN(N)c1c(-c2ccc(Cl)cc2Cl)c(Cl)nc2nc(C3CC3)nn12 [compound 750] and print it.
Result: 4.36

Request: Return the recorded logP value; entry: Fc1ccc(-c2c(Cl)nc3nc(C(F)(F)F)nn3c2NC2CCCC2)c(F)c1 [compound 530]
Result: 4.21

Request: Fill in reported logP for this entry: CCCN(CCOC)c1c(-c2ccc(F)cc2F)c(Cl)nc2nc(C)nn12 [compound 209]
Result: 3.26

Request: For the molecule C=C(C)CN(C)c1c(-c2c(F)cc(F)cc2F)c(Cl)nc2nc(C)nn12 [compound 155] , give its measured logP value.
Result: 3.55

Request: Determine its reported logP: COCCNc1c(-c2ccc(F)cc2F)c(Cl)nc2nc(C3CC3)nn12 [compound 654]
Result: 2.75

Request: Fill in logP for record Cc1nc2nc(Cl)c(-c3c(F)cccc3Cl)c(N3CCOCC3)n2n1 [compound 246]
Result: 2.48

Request: Give a short answer stating reported logP for Cc1nc2nc(Cl)c(-c3c(F)cc(F)cc3F)c(NCCC(F)(F)F)n2n1 [compound 70] .
Result: 2.85

Request: Annotate the molecule OC1CCCN(c2c(-c3ccc(F)cc3F)c(Cl)nc3nc(C4CC4)nn23)C1 (stereo not drawn) [compound 614] with its measured logP.
Result: 2.57

Request: Retrieve logP measured for CCC(C)Nc1c(-c2c(F)cc(F)cc2F)c(Cl)nc2nc(C)nn12 (stereo not drawn) [compound 147] and print it.
Result: 3.1
